B1: KLHL20 (parent)
chain: YQDMIYAVGGRDDTTELSSAERYN

Variants of: B1
Assay: protein stability index of a GFP-peptide fusion (GPS, HEK-293T) (PSI 1-6); higher = more stable;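 further: lentivirally expressed fusions sorted by FACS into six bins by GFP to DsRed ratio, PSI derived from sequencing read proportions per bin multiplied by bin number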
Settings: c terminus: a fixed tail appended
The reader will find reported protein stability index values listed item by item below.
Observable: protein stability index

INSERT INTO assay_data (mutant_name, observable, reported_value) VALUES
  ('S19E', 'protein stability index', 2.45),
  ('G10A', 'protein stability index', 1.83),
  ('E21W', 'protein stability index', 1.58),
  ('S19P', 'protein stability index', 2.66),
  ('E21A', 'protein stability index', 2),
  ('R11P', 'protein stability index', 2.57),
  ('E16I', 'protein stability index', 2.07),
  ('G10R', 'protein stability index', 1.86),
  ('E16A', 'protein stability index', 1.95),
  ('Y6F', 'protein stability index', 2.14),
  ('R11M', 'protein stability index', 2.32),
  ('D13C', 'protein stability index', 1.8),
  ('V8S', 'protein stability index', 2.65),
  ('S19T', 'protein stability index', 2.54),
  ('I5V', 'protein stability index', 2.53),
  ('D12A', 'protein stability index', 2.33),
  ('I5H', 'protein stability index', 2.65),
  ('L17H', 'protein stability index', 2.32),
  ('V8E', 'protein stability index', 3.38),
  ('D3I', 'protein stability index', 2.26),
  ('T14P', 'protein stability index', 2.89),
  ('N24F', 'protein stability index', 2.41),
  ('I5A', 'protein stability index', 2.28),
  ('E16Q', 'protein stability index', 2.36),
  ('D3K', 'protein stability index', 2.79),
  ('S19V', 'protein stability index', 1.99),
  ('G10S', 'protein stability index', 2.09),
  ('G9D', 'protein stability index', 2.88),
  ('R22Y', 'protein stability index', 2.63),
  ('I5M', 'protein stability index', 2.77),
  ('M4C', 'protein stability index', 2.68),
  ('M4E', 'protein stability index', 3.68),
  ('G9T', 'protein stability index', 2.4),
  ('Y23H', 'protein stability index', 2.64),
  ('S18D', 'protein stability index', 2.43),
  ('D12F', 'protein stability index', 1.45),
  ('Q2A', 'protein stability index', 2.3),
  ('E21C', 'protein stability index', 2.23);
